Reference source for all entries: paper PMC9520563

System: HepG2
Test: cells
Conditions: Homo sapiens, HepG2, 72 h, read-out: IC50 HepG2
Property measured: IC50

Sample records with IC50:
Problem: Report IC50 for COc1ccc(/C=C/C(=O)/C=C/c2cn(-c3ccccc3)nc2-c2ccccc2)c(OC)c1 [Compound 10b] tested on HepG2.
Solution: > 25 µM

Problem: Fill in the recorded IC50 for this molecule, with HepG2 as test system: O=C(/C=C/c1ccc2c(c1)OCO2)/C=C/c1cn(-c2ccccc2)nc1-c1ccccc1 [Compound 10f]
Solution: > 25 µM

Then there is this molecule:
Problem: Find the measured IC50: item CCOc1cc(/C=C/C(=O)/C=C/c2c(C)nn(-c3cccc([N+](=O)[O-])c3)c2Cl)ccc1O , target or system HepG2.
Solution: 11.2 µM
